protocol_notes: Solubility in gastric juice or intestinal juice model fluid (precipitation method using DMSO)
Type: physicochemical
condition: pH 6.8, kinetic from dmso stock, 2nd fluid for Disintegration Test of Japanese Pharmacopoeia (pH: 6.8), room temperature, read-out: Solubility (μg/mL) 2nd fluid
Values of solubility at 24 h greater than or equal to 2 µg/mL map to 1.0; values below map to 0.0.

Evaluate COc1cc(-c2cnc(C3CCC(F)(F)C3)[nH]2)ccc1OCc1ccc(C(F)(F)F)cn1 (stereo not shown) : solubility at 24 h at minimum 2 µg/mL?
1.0

// inclusive: solubility at 24 h at least 2 µg/mL? input: COc1cc(OCc2ccc(C(F)(F)F)nc2)ccc1-c1nc(-c2ccc(Cl)nc2)[nH]c1C
0.0

Is solubility at 24 h for COc1cc(OCc2ccc(C(F)(F)F)nc2)ccc1-c1c(C)nc(-c2ccc(Cl)nc2)n1C at or above 2 µg/mL?
0.0

State whether the measured solubility at 24 h reaches 2 µg/mL, counting equality as reaching it, for COc1cc(OCc2cccc(C#N)n2)ccc1-c1[nH]c(C2CCC(F)(F)CC2)nc1Cl
0.0

Decide: solubility at 24 h of COc1cc(OCc2ncc(C(F)(F)F)cc2F)ccc1-c1[nH]c(-c2ccc(F)nc2)nc1F >= 2 µg/mL?
0.0

In plain terms: is recorded solubility at 24 h at least 2 µg/mL for Oc1cc(OCc2ncc(C(F)(F)F)cc2F)ccc1-c1cnc(-c2ccc(F)nc2)[nH]1 ?
1.0

Check this compound for solubility at 24 h at or above 2 µg/mL: COc1cc(OCc2ccc(C(F)(F)F)cn2)ccc1-c1[nH]c(C2CCC(F)(F)CC2)nc1Cl
0.0

Determine whether this compound has solubility at 24 h no lower than 2 µg/mL: COc1cc(-c2nc(C3CCCCC3)[nH]c2Cl)ccc1OCc1ccc(C(F)(F)F)cn1
0.0

Record COc1cc(OCc2ncc(F)cc2F)ccc1-c1[nH]c(-c2ccc(Cl)nc2)nc1Br ; criterion: solubility at 24 h no lower than 2 µg/mL. Met?
1.0

Please indicate if the recorded solubility at 24 h for Fc1ccc(-c2nc(Br)c(-c3ccc(OCc4ncc(C(F)(F)F)cc4F)cc3)[nH]2)cn1 meets or exceeds 2 µg/mL.
0.0

Test whether the compound COc1cc(OCc2cnc(C)cn2)ccc1-c1c[nH]c(-c2ccc(Cl)nc2)n1 records solubility at 24 h of 2 µg/mL or higher.
0.0

Test whether the compound COc1cc(OCc2ccc(C(F)(F)F)nc2)ccc1-c1[nH]c(C2CC(F)(F)C2)nc1Cl records solubility at 24 h of 2 µg/mL or higher.
0.0

Has COc1cc(-c2[nH]c(C3CCC3)nc2Cl)ccc1OCc1ncc(C(F)(F)F)cc1F a recorded solubility at 24 h greater than or equal to 2 µg/mL?
0.0

In plain terms: is recorded solubility at 24 h at least 2 µg/mL for COc1cc(OCc2ncc(C(F)(F)F)cc2F)ccc1-c1[nH]c(C2CCC2)nc1Cl ?
0.0

Exam item: decide whether the reported solubility at 24 h for COc1cc(OCc2ncc(C)cc2C)ccc1-c1c[nH]c(-c2ccc(F)nc2)n1 is at least 2 µg/mL.
1.0
